Every entry's value here was drawn from a melting point compilation (Tetko et al.; mined from patent text by program, amines drawn as free bases though some values may be those of a salt).

measured parameter: melting point

As a guide, the following entries are already answered.
>  <molecule>
O=C(CC(F)=C(F)F)NS(=O)(=O)C(F)(F)F

>  <result>
115 to 120 °C

$$$$
>  <molecule>
Brc1ccc(Cn2cncn2)cc1

>  <result>
77 to 79 °C

$$$$
>  <molecule>
COc1cc2c3ccc(OC)c(OC)c3n(C(=O)c3ccccc3)c2cc1OC

>  <result>
184 to 185 °C

$$$$

Batch: melting point for all items listed.
1. Cc1csc2[nH]c(=O)c(=O)[nH]c12
2. O=c1[nH]c2cccnc2n1-c1ccccc1F
3. CC1(C)Oc2ccc(S(=O)(=O)c3ccccc3)cc2[C@@H](O)[C@@H]1Br (relative stereo)
4. CSc1cnc2ccsc2c1O

Resp:
> 320 °C
195 °C
103 to 105 °C
210 to 212 °C

Batch: melting point for all items listed.
1. CC(C)(C)OC(=O)Nc1ccc(C#Cc2nccs2)cc1[N+](=O)[O-]
2. O=C(O)c1cnc(-c2ccc(NC(=O)C(Cl)Cl)cc2)nc1O
3. O=C(O)c1ccc(C#Cc2ccc(O)c(C34CC5CC(CC(C5)C3)C4)c2)cc1
4. CCCCCN1C(=O)C(CCC(=O)OCC)(NC(=O)c2ccc3ccccc3c2)c2ccc(OC)cc21 (stereo not given)
5. COC(=O)CC(C)C1CCC2C3CC=C4CC(OC(C)=O)CC(OC(C)=O)C4(C)C3CCC12C (stereo not given)
6. Cc1cccc(C(=O)NCc2cccc3c2C(=O)N(C2CCC(=O)NC2=O)C3=O)n1 (stereo not given)
7. Cc1ccc(S(=O)(=O)N2[C@H](CCCCC#N)CC[C@@H]2c2ccc(F)cc2)cc1 (racemic)

Resp:
1: 137 °C; 2: > 310 °C; 3: 254 to 255 °C; 4: 156 to 159 °C; 5: 123 to 124 °C; 6: 197 to 199 °C; 7: 79 °C

Batch: melting point for all items listed.
1. CCOC(=O)N1C=CSC1C1=C(C)N=CC(OC)(OC)S1 (stereo not given)
2. CC(C)(C)c1cc(C=Cc2ccccc2O)on1
3. CCCCCCCC(SC)S(=O)(=O)c1ccc(C)cc1 (stereo not given)
4. Cc1cc(CCC(=O)OC(C)(C)C)cc(-c2nc(=O)c3ccccc3s2)n1

Resp:
1. 148 to 149 °C
2. 152 to 155 °C
3. 65 to 66 °C
4. 129 to 130 °C

Batch: melting point for all items listed.
1. COC(=O)C1=C(C)NC2=C(C(=O)CN(Cc3ccccc3)C2)C1c1ccccc1C(F)(F)F (stereo not given)
2. CC(C)(C)NC(=O)NC1(C#N)CCC1

Resp:
["225 to 227 °C", "212 to 214 °C"]

###

Task for the reader: assign each of the following compounds its reported melting point.

Batch: melting point for all items listed.
1. COC(=O)C(Cc1cc(OC)cc(OC)c1)c1ccc(Oc2ccc(C=C3SC(=O)NC3=O)cc2)cc1 (centres undefined)
2. COc1nc(C)cnc1NS(=O)(=O)c1cccnc1-c1ccc(OC(C)(C)CO)cc1
3. CC(O)(C(=O)O)c1ccc2c(c1)[nH]c1ccc(Cl)cc12 (centres undefined)
4. ClC(Cl)=CCOc1cc(Cl)c(OCCC2COC(c3ccc(Cl)cc3)O2)c(Cl)c1 (centres undefined)

Resp:
1. 104 to 106 °C
2. 182 to 184 °C
3. 218 to 220 °C
4. 84.1 °C
